# MEASUREMENT TARGET: T1, recombinant OX40 protein with a His tag (Cat: 10481-H08H, Sino Biological) (UniProt P43489 29-216)
# T1 construct: Bought protein; also called OX40-His (bought); not shown: His tag
# T1 sequence (looked up): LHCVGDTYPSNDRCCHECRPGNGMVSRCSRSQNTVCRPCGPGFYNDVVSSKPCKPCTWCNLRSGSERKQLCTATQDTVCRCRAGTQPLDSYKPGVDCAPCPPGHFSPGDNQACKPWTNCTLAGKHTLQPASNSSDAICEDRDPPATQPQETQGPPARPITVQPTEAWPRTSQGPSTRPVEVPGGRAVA
# TEST NAME: SPR, BIAcore T-200; antibody captured by anti-human IgG, OX40-His flowed; Test 1
Flag rule - Kd less than 10 nM flags y; the remaining entries get n.

BINDER	CLASS
445-3 (antibody, V domains shown) VH: QVQLVQSGAEVKKPGSSVKVSCKASGYKFTSYIIHWVRQAPGQGLEWMGYINPYNEGTRYNQKFQGRVTLTADKSTSTAYMELSSLRSEDTAVYYCARGYYGSSYAMDYWGQGTTVTVSS VL: DIQMTQSPSSLSASVGDRVTITCRASQGISNYLNWYQQKPDGAIKLLIYDASTLYSGVPSRFSGSGSGTDFTLTISSLQPEDFATYYCQQYSKLPYTFGGGTKVEIK	y
445-2 (antibody, V domains shown) VH: QVQLVQSGAEVKKPGSSVKVSCKASGYKFTSYIIHWVRQAPGQGLEWMGYINPYNEGTRYAQKFQGRVTLTADKSTSTAYMELSSLRSEDTAVYYCARGYYGSSYAMDYWGQGTTVTVSS VL: DIQMTQSPSSLSASVGDRVTITCSASQGISNYLNWYQQKPGKAIKLLIYDASTLYSGVPSRFSGSGSGTDFTLTISSLQPEDFATYYCQQYSKLPYTFGGGTKVEIK	n
ch445 (antibody, V domains shown, also called Mu445 variable domains fused to human IgG1wt/kappa constant regions) VH: EVQLQQSGPELVKPGASVKMSCKASGYKFTSYIIHWVKQKPGQGLEWIGYINPYNDGTRYNEKFKGKATLTSDKSSSTAYMEYSSLTSEDSAVYYCARGYYGSSYAMDYWGQGTSVTVSS VL: DIQMTQTTSSLSASLGDRVTISCSASQGISNYLNWYQQKPDGTIKLLIYDTSTLYSGVPSRFSGSGSGTDYFLTISNLEPEDIATYYCQQYSKLPYTFGGGTKLEKK	y

Prompt line: Identify whether the binder 445-1 (antibody, V domains shown) VH: QVQLVQSGAEVKKPGSSVKVSCKASGYKFTSYIIHWVRQAPGQGLEWMGYINPYNDGTRYNQKFQGRVTLTSDKSTSTAYMELSSLRSEDTAVYYCARGYYGSSYAMDYWGQGTTVTVSS VL: DIQMTQSPSSLSASVGDRVTITCSASQGISNYLNWYQQKPGKAIKLLIYDTSTLYSGVPSRFSGSGSGTDYTLTISSLQPEDFATYYCQQYSKLPYTFGGGTKVEIK records Kd below 10 nM.
Response line: n

Measured values drawn from patent US20230011916A1 for this set.
